Target: hCA XII (Homo sapiens, UniProt O43570)
Sequence (O43570 25-354): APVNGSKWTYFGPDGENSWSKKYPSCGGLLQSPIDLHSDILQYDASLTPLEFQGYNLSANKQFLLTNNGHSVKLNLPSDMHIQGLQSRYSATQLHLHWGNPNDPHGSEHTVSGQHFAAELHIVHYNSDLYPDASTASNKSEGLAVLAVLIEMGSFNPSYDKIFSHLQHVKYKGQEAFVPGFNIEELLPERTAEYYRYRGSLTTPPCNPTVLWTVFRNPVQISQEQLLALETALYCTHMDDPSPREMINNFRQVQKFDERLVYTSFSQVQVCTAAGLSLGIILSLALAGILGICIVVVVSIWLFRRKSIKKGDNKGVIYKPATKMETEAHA
Test: CA inhibition, stopped-flow CO2 hydrase assay, hCA XII
Assay type: biochemical
Property: Ki (µM)
Unit µM implied. Number only.

Structure: O=C1c2ccccc2S(=O)(=O)N1Cc1cn(Cc2ccccc2)nn1
Unit info: µM
Measured: 7.4

Alright, here's another compound for you.
// query # query: Ki of entry `O=C1c2ccccc2S(=O)(=O)N1Cc1cccc(Cl)c1`
// result 1.3

---

Molecular target: UniProtKB Q16790
Assay: CA inhibition, stopped-flow CO2 hydrase assay, hCA IX
Assay type: biochemical
Conditions: Table 1, saccharin-based derivatives; recombinant enzyme, 15 min preincubation, pH 7.5
Each item that follows carries a reported log10(Ki).
Recorded Ki (log10, µM)

// worked examples, log10(Ki) included
Structure: COC(=O)c1ccccc1S(=O)(=O)Nc1ccc(Br)cc1
log10(Ki): 0.83

Structure: COC(=O)c1ccccc1S(=O)(=O)Nc1ccccc1Cl
log10(Ki): 2.63

// query May I ask what log10(Ki) has been recorded for `O=C(O)c1ccccc1S(=O)(=O)Nc1ccc(C(F)(F)F)cc1` ?
// result 1.93

// query Now this one: `O=C1c2ccccc2S(=O)(=O)N1Cc1cccc(Cl)c1`
// result -1.00

// query Note, next up: `COC(=O)c1ccccc1S(=O)(=O)Nc1ccc(OC)cc1`
// result 1.97

// query One more molecule: `O=C1c2ccccc2S(=O)(=O)N1Cc1ccccc1Cl`
// result -0.52

// query One more molecule: `O=C(O)c1ccccc1S(=O)(=O)NCc1cn(Cc2ccccc2)nn1`
// result 0.28
